# Study Target: 5-hydroxytryptamine receptor 2B (Homo sapiens, UniProt P41595)
# Sequence (P41595 whole entry): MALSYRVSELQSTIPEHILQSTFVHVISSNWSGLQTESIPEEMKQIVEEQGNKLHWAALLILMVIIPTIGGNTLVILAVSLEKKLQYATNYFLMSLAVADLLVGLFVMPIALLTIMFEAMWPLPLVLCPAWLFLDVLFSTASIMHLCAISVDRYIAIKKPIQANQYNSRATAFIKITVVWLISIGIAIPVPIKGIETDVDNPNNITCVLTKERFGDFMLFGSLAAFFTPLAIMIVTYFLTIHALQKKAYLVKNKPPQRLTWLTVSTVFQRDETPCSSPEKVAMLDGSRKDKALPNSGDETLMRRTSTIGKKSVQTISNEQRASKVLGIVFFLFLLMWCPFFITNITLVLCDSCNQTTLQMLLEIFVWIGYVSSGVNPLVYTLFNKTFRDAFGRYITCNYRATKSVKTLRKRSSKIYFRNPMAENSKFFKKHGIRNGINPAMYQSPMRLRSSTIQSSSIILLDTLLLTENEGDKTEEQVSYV
# Assay Name: Agonist activity at 5HT2B (unknown origin)
Observation Type: EC50 (µM)
Express your answer in µM, writing the number without its unit.

Qu. I'd like to know its EC50. The compound in question is `NC[C@@H]1C[C@@H]1c1cc(F)ccc1OCC1CC1`
Ans. 0.289

----------
# Study Target: Sigma non-opioid intracellular receptor 1 (Homo sapiens, UniProt Q99720)
# Sequence (Q99720 whole entry): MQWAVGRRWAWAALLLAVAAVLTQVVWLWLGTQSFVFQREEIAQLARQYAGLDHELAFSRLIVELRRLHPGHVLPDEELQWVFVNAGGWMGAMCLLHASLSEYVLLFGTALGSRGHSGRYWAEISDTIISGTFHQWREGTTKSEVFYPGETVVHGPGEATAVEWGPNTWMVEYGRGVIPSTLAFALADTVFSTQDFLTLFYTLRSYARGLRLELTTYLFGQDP
# Assay Name: Binding affinity to sigma1 receptor (unknown origin) assessed as inhibition constant
Observation Type: Ki (nM)
Express your answer in nM, writing the number without its unit.

Qu. State its Ki on Sigma non-opioid intracellular receptor 1 (Homo sapiens, UniProt Q99720): `COC(=O)[C@]1(c2ccccc2)C[C@@H]1CN1CCC(O)(c2ccc(Cl)cc2)CC1`
Ans. 1.51
